Cited source: patent US20240150423A1

Test system: Normal Kunming (KM) mice
Test: multiple OGTT (mOGTT): hypoglycemic duration after a single administration
Format: in vivo
Details: monomeric peptides, single injection at the same dose (1.126 nmol), subcutaneous
Non-standard residues stand in square brackets, D forms with d. No end group written: not given here. βAib = beta-Aib residue
readout-type: Hypoglycemic (days)

[[record]]
substance = "His-βAib-Glu-Gly-Thr-Phe-Thr-Cys-Asp-Val-Ser-Ser-Tyr-Leu-Glu-Gly-Gln-Ala-Ala-Lys-Glu-Phe-Ile-Ala-Trp-Leu-Val-Arg-βAib-Arg-NH2 (H[βAib]EGTFTCDVSSYLEGQAAKEFIAWLVR[βAib]R-NH2; also: disulfide-linked homodimer via Cys) [G8 series 67]"
readout_type = "Hypoglycemic"
numeric_result = 2

[[record]]
substance = "His-Ala-Glu-Gly-Thr-Phe-Thr-Ser-Asp-Val-Ser-Cys-Tyr-Leu-Glu-Gly-Gln-Ala-Ala-Lys[N-ϵ-(N-α-Palmitoyl)]-Glu-Phe-Ile-Ala-Trp-Leu-Val-Arg-Gly-Arg-Gly-NH2 (HAEGTFTSDVSCYLEGQAAXEFIAWLVRGRG; palmitoyl on Lys side chain; C-terminal amide; Sequence is synthesized; (20)..(20) Xaa is 26Lys[N-e-(N-a-palmitoyl-L-g-glutamyl)]; (31)..(31) N-terminal) [G4 series 35]"
readout_type = "Hypoglycemic"
numeric_result = 6

[[record]]
substance = "His-Ala-Glu-Gly-Thr-Phe-Thr-Cys-Asp-Val-Ser-Ser-Tyr-Leu-Glu-Gly-Gln-Ala-Ala-Lys[N-ϵ-(N-α-Palmitoyl-L-γ-glutamyl)]-Glu-Phe-Ile-Ala-Trp-Leu-Val-Arg-Gly-Arg-Gly-OH (HAEGTFTCDVSSYLEGQAAXEFIAWLVRGRG; palmitoyl-gamma-Glu on Lys; C-terminal acid; Sequence is synthesized; (20)..(20) Xaa is 26Lys[N-e-(N-a-palmitoyl-L-g-glutamyl)]; (31)..(31) C-terminal) [G8 series 56]"
readout_type = "Hypoglycemic"
numeric_result = 1

